Test system: Abp1 (1xFLAG)
Protocol Summary: Western blot expression level of Abp1 SH3-swapped baits (Fig. S2A-B)
Format: cell-based, Saccharomyces cerevisiae
Experimental Context: Flag signal relative to Abp1 WT (Abp1-1 to Abp1-4 = 1); sheet FigS2A-B
Observable: Ratio Swap/WT Flag

Task: Which Ratio Swap/WT Flag is listed for Sho1 (protein, UniProt P40073 1-367, looked up) High osmolarity signaling …: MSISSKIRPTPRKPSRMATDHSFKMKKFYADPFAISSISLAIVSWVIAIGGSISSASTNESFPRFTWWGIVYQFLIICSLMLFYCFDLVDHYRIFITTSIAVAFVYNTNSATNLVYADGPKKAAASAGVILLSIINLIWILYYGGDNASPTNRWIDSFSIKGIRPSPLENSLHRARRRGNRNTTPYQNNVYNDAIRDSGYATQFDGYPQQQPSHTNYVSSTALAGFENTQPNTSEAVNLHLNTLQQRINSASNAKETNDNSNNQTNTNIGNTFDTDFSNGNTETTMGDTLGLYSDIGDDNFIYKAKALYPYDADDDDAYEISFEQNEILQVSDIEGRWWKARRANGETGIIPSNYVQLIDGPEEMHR ?
Result: 0.6541

Task: Which Ratio Swap/WT Flag is listed for Pin3 (protein, UniProt Q06449 2-215, looked up) [PSI+] inducibility protein 3: SASLINRSLTNIRTELDFLKGSNVISNDVYDQINKSLPAKWDPANAPRNASPASLEYVEALYQFDPQQDGDLGLKPGDKVQLLEKLSPEWYKGSCNGRTGIFPANYVKPAFSGSNGPSNLPPPPQYKAQELQQIPTQNSAASSYQQQPFPPPSTNYYQQPQQQPQQAPPPQQQQQQQQHQSSHSHLKSFGSKLGNAAIFGAGASIGSDIVNNIF ?
Result: 0.2499
